The measurements presented in this section are drawn from PubChem BioAssay (NCI).

- Tested on: SK-MEL-5 melanoma
- assayOverview: NCI tumour cell line growth inhibition, 48 h
Recorded TGI values for a group of compounds are listed next.
measurementType: TGI

| compound | measuredOn | reading |
| --- | --- | --- |
| CCOC(=O)/C=C1\Nc2ccccc2-n2nnnc21 | SK-MEL-5 melanoma | > 100 µM |
| CCC[CH2][Sn]([CH2]CCC)([S]C1=NCCS1)[S]C1=NCCS1 | SK-MEL-5 melanoma | 1.76 µM |
| COC(=O)/C=C(\S/C(=C(/c1ccc(OC)cc1)n1cc(C(=O)OC)c(C(=O)OC)n1)c1ccc(OC)cc1)C(=O)OC | SK-MEL-5 melanoma | > 100 µM |
| COc1cc(-c2c(C)c(C)nc(OC)c2C#N)cc(OC)c1OC | SK-MEL-5 melanoma | > 100 µM |
| COc1ccc(Nc2ccnc(NCCCNc3ccnc4cc(Cl)ccc34)n2)cc1 | SK-MEL-5 melanoma | 1.46 µM |
| C=CC1(c2ccc(Br)cc2)OCCCO1 | SK-MEL-5 melanoma | > 100 µM |
| C/C(=C/CNc1ncnc2c1ncn2CCC#N)CO | SK-MEL-5 melanoma | > 100 µM |
| O=c1[nH]c(=O)n(C2CC(O)C(CO)O2)c2nc3ccc4ccccc4c3nc12 (configuration not stated) | SK-MEL-5 melanoma | > 100 µM |
| O=C(O)/C(Cl)=C(\Cl)C(=O)Nc1ccccc1 | SK-MEL-5 melanoma | > 100 µM |
| C/C(=C\COP(=O)(O)OP(=O)(O)O)CC/C=C(\C)CNc1ccc([N+](=O)[O-])cc1 | SK-MEL-5 melanoma | > 100 µM |
| CN1CCN(C(=S)N(C)C(=O)c2cccs2)CC1 | SK-MEL-5 melanoma | > 100 µM |
| Nc1ccc(C(=O)NN2C(=O)C(Cl)C2c2ccccc2O)cc1 (configuration not stated) | SK-MEL-5 melanoma | > 100 µM |
| Cn1cc(C2=C(c3c4n(c5ccccc35)CCC(CN)CC4)C(=O)NC2=O)c2ccccc21 (configuration not stated) | SK-MEL-5 melanoma | 7.59 µM |
| Cc1ccc(C(=O)NC2CCCCC2)cc1-c1ccc(C(=O)NCC2CC2)cc1 | SK-MEL-5 melanoma | > 25 µM |
| COC(=O)C#Cc1ccc([N+](=O)[O-])cc1 | SK-MEL-5 melanoma | 6.18 µM |
| COc1ccc(-c2nc(-c3nc4cc(C)c(C)cc4[nH]3)cc3c2[nH]c2ccccc23)cc1 | SK-MEL-5 melanoma | 12.6 µM |
| O=C(O)Cc1[nH]cnc1C(=O)O | SK-MEL-5 melanoma | > 100 µM |
| COc1ccccc1CNCc1nc2ccccc2[nH]1 | SK-MEL-5 melanoma | > 100 µM |
| COc1ccc(NC(C)=O)cc1N1C(=O)/C(=C\c2cc(OC)c(OC)c(OC)c2)S(=O)(=O)C1c1ccccc1 (configuration not stated) | SK-MEL-5 melanoma | > 100 µM |
| O=C1NC(Cc2c[nH]c3ccccc23)C(=O)N2C(c3ccccc3)c3[nH]c4ccccc4c3C[C@@H]12 (some centres not stated) | SK-MEL-5 melanoma | 32.7 µM |
| CCOn1cc(C2=C(c3c[nH]c4ccccc34)C(=O)NC2=O)c2ccccc21 | SK-MEL-5 melanoma | < 0.01 µM |
| C=C1CC(COc2ccc3ccc(=O)oc3c2)(c2ccccc2)OC1=O (configuration not stated) | SK-MEL-5 melanoma | 2.85 µM |
